settings: in n-butanol, 318.05 K
measured-quantity: solubility (mole fraction)
A bare number is all that is needed in reply.

What solubility (mole fraction) value was documented for this molecule, "C[C@H]1[C@H](OC(=O)CCC(=O)O)O[C@@H]2O[C@@]3(C)CC[C@H]4[C@H](C)CC[C@@H]1[C@@]24OO3" ? 0.0379

---

conditions: in n-pentyl acetate, 313.13 K
measured-quantity: solubility (mole fraction)
Form: value (number only, do not type unit).

Would you mind telling me what solubility (mole fraction) value was observed for "C[C@H]1[C@H](OC(=O)CCC(=O)O)O[C@@H]2O[C@@]3(C)CC[C@H]4[C@H](C)CC[C@@H]1[C@@]24OO3" ? 0.0191
